kobs/[I] (second-order inactivation rate constant) listing for selected compounds.
STUDY TARGET: Granzyme K (Rattus norvegicus) (UniProt P49864)
Sequence (P49864 whole entry): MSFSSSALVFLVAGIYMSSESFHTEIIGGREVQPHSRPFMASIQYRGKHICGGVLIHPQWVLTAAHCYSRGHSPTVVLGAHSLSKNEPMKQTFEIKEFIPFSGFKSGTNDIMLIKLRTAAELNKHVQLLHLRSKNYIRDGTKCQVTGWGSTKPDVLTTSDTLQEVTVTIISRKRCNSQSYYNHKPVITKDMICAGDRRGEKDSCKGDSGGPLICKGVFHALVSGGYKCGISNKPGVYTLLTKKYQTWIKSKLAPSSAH
TEST SUMMARY: Inhibition of rat granzyme K
The figure you give is taken to be in M⁻¹ s⁻¹; do not add the unit.

compound="N=C(N)c1ccc(C(NC(=O)[C@@H]2CCCN2C(=O)c2ccccc2Oc2ccccc2)P(=O)(Oc2ccccc2)Oc2ccccc2)cc1 (some centres undefined)" numeric_readout=60
compound="CC(C)(C)OC(=O)N[C@H](Cc1ccccc1)C(=O)N1CCC[C@H]1C(=O)NC(c1ccc(C(N)N)cc1)P(=O)(Oc1ccccc1)Oc1ccccc1 (some centres undefined)" numeric_readout=56
compound="NC(N)c1ccc(C(NC(=O)OCc2cccc3ccccc23)P(=O)(Oc2ccccc2)Oc2ccccc2)cc1 (centres undefined)" numeric_readout=12

// next entry
Please report kobs/[I] (second-order inactivation rate constant) for the following compound: N=C(N)c1ccc(C(NC(=O)/C=C/c2cccs2)P(=O)(Oc2ccccc2)Oc2ccccc2)cc1 (centres undefined)
4
